# run.description: 28-day once weekly oral repeated-dose DRF study in cynomolgus monkeys (mesylate salt)
# Type: in vivo
# measurement.setup: female, cynomolgus monkey, whole blood, po, 30 mg/kg, F, Day 22
# Protocol: The objective of the study was to determine the TK profile of Compound 1 following 4 weekly oral administrations to cynomolgus monkeys and to assess reversibility of any changes following a 13-day recovery period. Male and female cynomolgus monkeys (n=1/sex/group) were orally administered Compound 1 (mesylate salt) at dose levels of 30, 45, 60, or 90 mg/kg/administration for 4 consecutive doses on study days 1, 8, 15, and 22. The vehicle was 0.5% (w/v) methyl cellulose 400 in sterile water. […]

[
  {
    "compound": "CC(C)C[C@@H]1NCCN([C@@H](CC(C)C)C(=O)N2CCC3(C[C@@H]2C)OCC(CN2CCCC2)CO3)C1=O (stereo partly shown) [Compound 1]",
    "Cmax": "223 ng/mL"
  }
]

----------
# run.description: 14-day daily oral repeated-dose DRF study in Beagle dogs (citrate salt)
# Format: in vivo
# measurement.setup: both sexes, Beagle, dog, plasma, po; 0.1 and 0.3 mg/kg/day, Day 14
readout: Tmax (h)

[
  {
    "compound": "CC(C)C[C@@H]1NCCN([C@@H](CC(C)C)C(=O)N2CCC3(C[C@@H]2C)OCC(CN2CCCC2)CO3)C1=O (stereo partly shown)",
    "readout": "Tmax",
    "measurement.units": "h",
    "value.observed": 1
  }
]

----------
# run.description: 14-day daily oral repeated-dose DRF study in cynomolgus monkeys (mesylate salt)
# Type: in vivo
# measurement.setup: both sexes, cynomolgus monkey, plasma, po, 8 mg/kg, 8 mg/kg (Gr. 3), Day 5

[
  {
    "molecule": "CC(C)C[C@@H]1NCCN([C@@H](CC(C)C)C(=O)N2CCC3(C[C@@H]2C)OCC(CN2CCCC2)CO3)C1=O (stereo partly shown) [Compound 1]",
    "Tmax / h": 1
  }
]

----------
# run.description: 14-day daily oral repeated-dose exploratory study in CD-1 mice (mesylate salt)
# Type: in vivo
# measurement.setup: male, CD-1, mouse, in vivo, po, 15 mg/kg, M, Day 14
readout: Cmax (ng/mL)

[
  {
    "compound": "CC(C)C[C@@H]1NCCN([C@@H](CC(C)C)C(=O)N2CCC3(C[C@@H]2C)OCC(CN2CCCC2)CO3)C1=O (stereo partly shown)",
    "readout": "Cmax",
    "value.observed": 102
  }
]

----------
# run.description: 28-day once weekly oral repeated-dose DRF study in CD-1 mice (mesylate salt), plasma
# Type: in vivo
# measurement.setup: male, CD-1, mouse, plasma, po, 600 mg/kg, 600 mg/kg/week, 4th dose

[
  {
    "compound": "CC(C)C[C@@H]1NCCN([C@@H](CC(C)C)C(=O)N2CCC3(C[C@@H]2C)OCC(CN2CCCC2)CO3)C1=O (stereo partly shown) [Compound 1]",
    "Tmax": "30 min"
  }
]

----------
# run.description: 5-day daily oral repeated-dose pilot study in cynomolgus monkeys (mesylate salt)
# Format: in vivo
# measurement.setup: both sexes, cynomolgus monkey, serum, po; all groups and time points; read-out: half-life (T1/2)

[
  {
    "compound": "CC(C)C[C@@H]1NCCN([C@@H](CC(C)C)C(=O)N2CCC3(C[C@@H]2C)OCC(CN2CCCC2)CO3)C1=O (stereo partly shown)",
    "half-life": "5 to 7 h"
  }
]

----------
# run.description: 28-day once weekly oral repeated-dose DRF study in cynomolgus monkeys (mesylate salt)
# Format: in vivo
# measurement.setup: female, cynomolgus monkey, blood, po, 45 mg/kg, F, Day 1; read-out: AUC0-Tlast
readout: AUC(0-t) (ng·h/mL)

[
  {
    "compound": "CC(C)C[C@@H]1NCCN([C@@H](CC(C)C)C(=O)N2CCC3(C[C@@H]2C)OCC(CN2CCCC2)CO3)C1=O (stereo partly shown)",
    "readout": "AUC(0-t)",
    "measurement.units": "ng·h/mL",
    "value.observed": 4130
  }
]

----------
# run.description: Single dose intravenous and oral PK in Beagle dogs (citrate salt)
# Format: in vivo
# measurement.setup: both sexes, beagle, dog, whole blood; IV 4 mg/kg

[
  {
    "compound": "CC(C)C[C@@H]1NCCN([C@@H](CC(C)C)C(=O)N2CCC3(C[C@@H]2C)OCC(CN2CCCC2)CO3)C1=O (stereo partly shown) [Compound 1]",
    "half-life [h]": 2.5
  }
]

----------
# run.description: 28-day once weekly oral repeated-dose DRF study in CD-1 mice (mesylate salt), plasma
# Assay type: in vivo
# measurement.setup: male, CD-1, mouse, plasma, po, 600 mg/kg, 600 mg/kg/week, 4th dose (Week 4); read-out: AUC0-8h
readout: AUC(0-t) (µg·h/mL)

[
  {
    "compound": "CC(C)C[C@@H]1NCCN([C@@H](CC(C)C)C(=O)N2CCC3(C[C@@H]2C)OCC(CN2CCCC2)CO3)C1=O (stereo partly shown)",
    "readout": "AUC(0-t)",
    "value.observed": 125
  }
]

----------
# run.description: 14-day daily oral repeated-dose exploratory study in CD-1 mice (mesylate salt)
# Type: in vivo
# measurement.setup: female, CD-1, mouse, in vivo, po, 10 mg/kg, F, Day 14
readout: AUC(0-t)

[
  {
    "compound": "CC(C)C[C@@H]1NCCN([C@@H](CC(C)C)C(=O)N2CCC3(C[C@@H]2C)OCC(CN2CCCC2)CO3)C1=O (stereo partly shown)",
    "value.observed": "690 ng·h/mL"
  }
]

----------
# run.description: 14-day daily oral repeated-dose DRF study in cynomolgus monkeys (mesylate salt)
# Format: in vivo
# measurement.setup: both sexes, cynomolgus monkey, plasma, po, 8 mg/kg, 8 mg/kg (Gr. 4), Day 1

[
  {
    "molecule": "CC(C)C[C@@H]1NCCN([C@@H](CC(C)C)C(=O)N2CCC3(C[C@@H]2C)OCC(CN2CCCC2)CO3)C1=O (stereo partly shown)",
    "Tmax / h": 1
  }
]

----------
# run.description: 28-day once weekly oral repeated-dose DRF study in cynomolgus monkeys (mesylate salt)
# Type: in vivo
# measurement.setup: female, cynomolgus monkey, whole blood, po, 90 mg/kg, F, Day 1; read-out: AUC0-Tlast
readout: AUC(0-t) (ng·h/mL)

[
  {
    "molecule": "CC(C)C[C@@H]1NCCN([C@@H](CC(C)C)C(=O)N2CCC3(C[C@@H]2C)OCC(CN2CCCC2)CO3)C1=O (stereo partly shown) [Compound 1]",
    "value.observed": 18700
  }
]

----------
# run.description: Single dose oral gavage or intravenous PK in female cynomolgus monkeys, plasma
# Type: in vivo
# measurement.setup: female, cynomolgus monkey, plasma; IV 0.6 mg/kg
readout: Tmax (min)

[
  {
    "compound": "CC(C)C[C@@H]1NCCN([C@@H](CC(C)C)C(=O)N2CCC3(C[C@@H]2C)OCC(CN2CCCC2)CO3)C1=O (stereo partly shown)",
    "value.observed": 4.8
  }
]

----------
# run.description: 14-day daily oral repeated-dose DRF study in cynomolgus monkeys (mesylate salt)
# Assay type: in vivo
# measurement.setup: both sexes, cynomolgus monkey, plasma, po, 12 mg/kg, 12 mg/kg (Gr. 2), Day 1; read-out: T1/2 (converted)

[
  {
    "molecule": "CC(C)C[C@@H]1NCCN([C@@H](CC(C)C)C(=O)N2CCC3(C[C@@H]2C)OCC(CN2CCCC2)CO3)C1=O (stereo partly shown) [Compound 1]",
    "half-life (h)": 6.6
  }
]

----------
# run.description: Single dose oral gavage or intravenous PK in female cynomolgus monkeys, plasma
# Format: in vivo
# measurement.setup: female, cynomolgus monkey, plasma; IV 0.2 mg/kg

[
  {
    "molecule": "CC(C)C[C@@H]1NCCN([C@@H](CC(C)C)C(=O)N2CCC3(C[C@@H]2C)OCC(CN2CCCC2)CO3)C1=O (stereo partly shown)",
    "half-life / h": 4.64
  }
]

----------
# run.description: 14-day daily oral repeated-dose DRF study in cynomolgus monkeys (mesylate salt)
# Type: in vivo
# measurement.setup: cynomolgus monkey, plasma, po, 4 mg/kg, 4 mg/kg (Gr. 1), Day 5; read-out: T1/2 (converted)
readout: half-life (h)

[
  {
    "compound": "CC(C)C[C@@H]1NCCN([C@@H](CC(C)C)C(=O)N2CCC3(C[C@@H]2C)OCC(CN2CCCC2)CO3)C1=O (stereo partly shown)",
    "measurement.units": "h",
    "value.observed": 8.4
  }
]
